# PROCEDURE_DETAILS: SK-BR-3 cell growth inhibitors, pilot screen, 24 h, human (AID 572);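 further: compound exposure lasted between 18 and 24 h rather than exactly 24 h; 100% = carrier-treated control wells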
# CONDITION_SUMMARY: SK-BR-3 viability, CellTiter-Glo luminescence, at 10 µM, hits give low values
The following compounds are shown together with reported viability values.

COMPOUND: CCCCN(CCCC)CCCNC(=O)CC1Oc2ccc(C)cc2NC1=O (centres undefined)
RESULT_UNIT: %
viability: 102
--
COMPOUND: COc1ccc(N2CCN(CCCNC(=O)C3CCCN(S(=O)(=O)c4cnc[nH]4)C3)CC2)cc1 (centres undefined)
RESULT_UNIT: %
viability: 95.5
--
COMPOUND: COC(=O)c1sccc1NC(=O)c1csc(C)c1
RESULT_UNIT: %
viability: 87
--
COMPOUND: Cc1ccc(S(=O)(=O)N2CCOCC(=O)NCCOCCNC(=O)COCC2)cc1
RESULT_UNIT: %
viability: 93.5
--
COMPOUND: COc1ccccc1N1CCN(C(=O)c2ccc(CS(=O)(=O)c3ccccc3OC)o2)CC1
RESULT_UNIT: %
viability: 90.5
--
COMPOUND: O=C(NCC1CCCO1)C1c2ccccc2C(=O)N1C1CCCCCC1 (centres undefined)
RESULT_UNIT: %
viability: 105
--
COMPOUND: COC(=O)c1cccc(S(=O)(=O)N2CCN(c3nc4ccccc4s3)CC2)c1
RESULT_UNIT: %
viability: 83
--
COMPOUND: COC(=O)c1ccccc1NS(=O)(=O)c1ccc(F)cc1
RESULT_UNIT: %
viability: 120
--
COMPOUND: O=S(=O)(CCOc1ccccc1)c1nc2ccccc2[nH]1
RESULT_UNIT: %
viability: 104
--
COMPOUND: COc1ccccc1N1CCN(C(=O)C2CCCO2)CC1 (centres undefined)
RESULT_UNIT: %
viability: 98.5
--
COMPOUND: CCOc1ccccc1N1CCN(c2nc(N)c(C#N)c(CC#N)c2C#N)CC1
RESULT_UNIT: %
viability: 108
--
COMPOUND: CCC(Sc1nc2sc(C(=O)OC)c(C)c2c(=O)n1N)C(=O)NCC1CCCO1 (centres undefined)
RESULT_UNIT: %
viability: 102
--
COMPOUND: Cc1ccc(Nc2cc(-n3nc(C)cc3C)ncn2)cc1
RESULT_UNIT: %
viability: 96.5
--
COMPOUND: CCCn1c(SCC(=O)N2CCN(c3ccccc3)CC2)nc2ccccc2c1=O
RESULT_UNIT: %
viability: 117
--
COMPOUND: O=C(O)c1cccc(CN2C(=O)SC(Nc3ccccc3)C2=O)c1 (centres undefined)
RESULT_UNIT: %
viability: 110
--
COMPOUND: Brc1cccc(-c2cnc3n2CCCCC3)c1
RESULT_UNIT: %
viability: 95.5
--
COMPOUND: COc1ccccc1OCC(=O)N1CCNC1=O
RESULT_UNIT: %
viability: 90
--
COMPOUND: CCOC(=O)C1CCN(c2c(N3CCCC(C(=O)OCC)C3)c(=O)c2=O)CC1 (centres undefined)
RESULT_UNIT: %
viability: 103
--
COMPOUND: CCOc1ccccc1NC(=O)C1CCCN1C(=O)OCc1ccccc1 (centres undefined)
RESULT_UNIT: %
viability: 84.5
--
COMPOUND: CCC(=O)N1CCc2cc(OC)c(OC)cc2C1COc1ccc(C(=O)OC)cc1 (centres undefined)
RESULT_UNIT: %
viability: 94.5
--
COMPOUND: COc1ccc(C(=O)OCC(=O)NCc2ccco2)cc1OC
RESULT_UNIT: %
viability: 110
--
COMPOUND: O=C(c1ccccc1)N1CCCCC(Sc2nnnn2-c2ccccc2)C1=O (centres undefined)
RESULT_UNIT: %
viability: 89.5
--
COMPOUND: Cc1occc1-c1nnc(SCC(=O)c2ccc(F)cc2)n1Cc1ccco1
RESULT_UNIT: %
viability: 77.5
--
COMPOUND: CCOC(=O)c1[nH]c(C)c(C(=O)N(C)C)c1C
RESULT_UNIT: %
viability: 110
--
COMPOUND: COc1ccc(S(=O)(=O)N2CCN(CC(=O)Nc3ccc(F)c(F)c3)CC2)cc1
RESULT_UNIT: %
viability: 88.5
--
COMPOUND: COc1cccc(NC(=O)N[C@@H](Cc2ccccc2)C(=O)O)c1
RESULT_UNIT: %
viability: 94
--
COMPOUND: CC(=O)N1CCN(C(C)=O)C1c1ccccc1
RESULT_UNIT: %
viability: 93.5
--
COMPOUND: CCn1c(SCC(=O)N2CCCc3ccccc32)nnc1-c1cccs1
RESULT_UNIT: %
viability: 85.5
--
COMPOUND: CCCNC(=O)NC(C(=O)OC)C12CC3CC(CC(C3)C1)C2 (centres undefined)
RESULT_UNIT: %
viability: 101
--
COMPOUND: CCCCC(c1nnnn1CS(=O)(=O)c1ccc(C)cc1)N1CCN(c2ccccc2)CC1 (centres undefined)
RESULT_UNIT: %
viability: 102
--
COMPOUND: CC(C)Oc1ccc(N2CC(C(=O)Nc3ccccc3F)CC2=O)cc1 (centres undefined)
RESULT_UNIT: %
viability: 101
--
COMPOUND: COc1ccc(Cc2nn3c(-c4cc(OC)c(OC)c(OC)c4)nnc3s2)cc1
RESULT_UNIT: %
viability: 95
--
COMPOUND: O=C1CC(N2CCC(C(=O)N3CCCCC3)CC2)C(=O)N1 (centres undefined)
RESULT_UNIT: %
viability: 110
--
COMPOUND: COc1cc(C2=NOC(C(=O)NCc3ccc(F)cc3)C2)cc(OC)c1OC (centres undefined)
RESULT_UNIT: %
viability: 84
--
COMPOUND: Cc1ccc(C(c2sc3nc(C)nn3c2O)N2CC(C)OC(C)C2)cc1 (centres undefined)
RESULT_UNIT: %
viability: 97
--
COMPOUND: CC(=O)N1CCc2cc(Br)cc(S(=O)(=O)NCCCN3CCCC(C)C3)c21 (centres undefined)
RESULT_UNIT: %
viability: 83
--
COMPOUND: CCOc1ccc(NC(=O)CSc2nnc(Cc3cccn3C)n2-c2ccc(OC)cc2)cc1
RESULT_UNIT: %
viability: 82
--
COMPOUND: Cc1ccc(Cc2c(C)nc3c(C(=O)O)cnn3c2C)cc1
RESULT_UNIT: %
viability: 93.5
--
COMPOUND: Cc1ccc(CN2C(=O)CCC2C(=O)NCCCN2CCC(C)CC2)cc1 (centres undefined)
RESULT_UNIT: %
viability: 98.5

---

# PROCEDURE_DETAILS: reversal of MRP1-mediated doxorubicin resistance, pilot screen, H69AR cells, doxorubicin co-treatment (AID 601)
# CONDITION_SUMMARY: H69AR cells + 2 uM doxorubicin, CellTiter-Glo, 72 h; at 10 µM; hits give high values
Activity calls are given as the source filed them.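 How the source made its calls: active means viability loss from added drug above about 55%, and viability with drug at most 40%, in both replicates (limit read from the data, passing the limit was not always enough); inconclusive means both conditions met in only one replicate; inactive means neither replicate meets both conditions.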

COMPOUND: CCc1nnc(NC(=O)c2ccc(S(=O)(=O)NCC(C)C)cc2)s1
differential viability (reversal): 1.11% (inactive)
--
COMPOUND: COc1cccc(OCc2nc3c4cnn(-c5ccccc5)c4ncn3n2)c1
differential viability (reversal): -20.5% (inactive)
--
COMPOUND: Cc1noc(C)c1S(=O)(=O)N1CCCC(C(=O)NCCc2ccc(Cl)cc2)C1 (stereo unspecified)
differential viability (reversal): 5.35% (inactive)
--
COMPOUND: O=C(CSc1nnnn1Cc1ccccc1)Nc1ccc2c(c1)OCO2
differential viability (reversal): 18.2% (inactive)
--
COMPOUND: Cc1nn(C(=O)c2cc3sccc3[nH]2)c(C)c1C
differential viability (reversal): 2.57% (inactive)
--
COMPOUND: Cn1c(=O)c2c(nc(Oc3ccc4c(c3)OCO4)n2Cc2ccc(F)cc2)n(C)c1=O
differential viability (reversal): -8.34% (inactive)
--
COMPOUND: O=C(Cc1c(F)cccc1Cl)Nc1ccncc1
differential viability (reversal): -5.46% (inactive)
--
COMPOUND: O=C(Nc1cccnc1N1CCOCC1)c1ccco1
differential viability (reversal): 7.89% (inactive)
--
COMPOUND: CCN1CCc2c(C#N)c(N3CCOCC3)nc(NCc3ccccc3)c2C1
differential viability (reversal): 3.46% (inactive)
--
COMPOUND: COC(=O)C1=C(C)OC(N)=C(C#N)C1c1ccccc1 (stereo unspecified)
differential viability (reversal): 12.1% (inactive)
--
COMPOUND: C[C@@H]1C[C@H](O)c2cc(Cl)ccc2N1
differential viability (reversal): 7.69% (inactive)
--
COMPOUND: Cc1cc(C)c2c(n1)nn1c(N3CCN(c4cccc(Cl)c4)CC3)cc(C)nc21
differential viability (reversal): 6.38% (inactive)
--
COMPOUND: NC(=O)CSc1nnc(-c2cnccn2)n1-c1ccccc1
differential viability (reversal): 7.27% (inactive)
--
COMPOUND: CCOC(=O)c1c(N)sn(-c2ccccc2)c1=S
differential viability (reversal): -5.28% (inactive)
--
COMPOUND: C=CCOC(=O)C(C#N)c1nc2ccccc2nc1N1CCN(Cc2ccccc2)CC1 (stereo unspecified)
differential viability (reversal): -9.45% (inactive)
--
COMPOUND: CCOC(=O)c1cnc(-n2nc(C)cc2C)nc1Nc1cccc(C(C)=O)c1
differential viability (reversal): -9.45% (inactive)
--
COMPOUND: Cc1ccccc1NC(=O)C1Cc2ccccc2C(=O)O1 (stereo unspecified)
differential viability (reversal): 7.54% (inactive)
--
COMPOUND: Cc1cc(C(=O)CSc2nc3ccccc3[nH]2)c(C)n1C
differential viability (reversal): 12.8% (inactive)
--
COMPOUND: O=C(OC1CCOC1=O)c1ccc2ccccc2n1 (stereo unspecified)
differential viability (reversal): 9.04% (inactive)
--
COMPOUND: CCOc1ccc(C2/C(=C(/O)c3ccc(OC)cc3)C(=O)C(=O)N2c2cc(C)on2)cc1OC (stereo unspecified)
differential viability (reversal): -10.3% (inactive)
--
COMPOUND: COc1ccc(OC)c(C2C(C(=O)Nc3cccnc3)=C(C)NC3=C2C(=O)CCC3)c1 (stereo unspecified)
differential viability (reversal): 15.1% (inactive)
--
COMPOUND: O=C1COc2ccc(C(=O)NCc3ccco3)cc2N1
differential viability (reversal): 7.71% (inactive)
--
COMPOUND: CCc1nnc2sc(-c3cc(-c4ccccc4)nc4ccccc34)nn12
differential viability (reversal): -0.185% (inactive)
--
COMPOUND: Cn1cc(CN2CCc3ccccc3C2)c2ccccc21
differential viability (reversal): -8.43% (inactive)
--
COMPOUND: CCNc1nc(N2CCCCC2)nc(-n2nnc(C(=O)OCC)c2C)n1
differential viability (reversal): 1.31% (inactive)
--
COMPOUND: O=C(Nc1cccc2ccccc12)N1CCOCC1
differential viability (reversal): -8.41% (inactive)
--
COMPOUND: FC(F)(F)c1cc(-c2ccccc2)nc(N2CCCCC2)n1
differential viability (reversal): -3% (inactive)
--
COMPOUND: CCOC(=O)N1CCC2(CC1)CC(=O)c1c(ccc3oc(C(=O)O)c(C)c13)O2
differential viability (reversal): 3.56% (inactive)
--
COMPOUND: CCC(=O)c1ccc(OC(=O)c2ccc(Br)o2)cc1
differential viability (reversal): 8.45% (inactive)
--
COMPOUND: O=C(CN1C(=O)c2cccc3cccc1c23)NCC1CCCO1 (stereo unspecified)
differential viability (reversal): 1.85% (inactive)
--
COMPOUND: CCN(CCCNC(=O)CCNC(=O)Cn1ccc2ccccc2c1=O)c1ccccc1
differential viability (reversal): 11.8% (inactive)
--
COMPOUND: Cc1cc(C)nc(N2CCC(C(=O)NC3CCCCCC3)CC2)n1
differential viability (reversal): 1.6% (inactive)
--
COMPOUND: CC(C)CC(c1nnnn1C1CCCC1)N1CCN(c2ccccc2F)CC1 (stereo unspecified)
differential viability (reversal): -7.72% (inactive)
--
COMPOUND: CCSc1nnc(NC(=O)CSc2ncccn2)s1
differential viability (reversal): 22.3% (inactive)
--
COMPOUND: CCc1ccc(C2CC(c3ccccc3)n3ncnc3N2)cc1 (stereo unspecified)
differential viability (reversal): 3.85% (inactive)
--
COMPOUND: CC(C)CN(C(=O)COC(=O)Cc1n[nH]c(=O)c2ccccc12)C1CCS(=O)(=O)C1 (stereo unspecified)
differential viability (reversal): 4.47% (inactive)
--
COMPOUND: CC(=O)c1ccc(OC(=O)c2cccs2)cc1
differential viability (reversal): -5.42% (inactive)
--
COMPOUND: O=C(c1ccco1)N1CCN(S(=O)(=O)c2ccc(C3CCCCC3)cc2)CC1
differential viability (reversal): 0.505% (inactive)
--
COMPOUND: Cc1nc2ccccn2c1P(=O)(N1CCCCC1)N1CCCCC1
differential viability (reversal): 1.72% (inactive)
--
COMPOUND: Cc1ccc(Cl)cc1N1CCN(C(=O)C2CCCN(S(=O)(=O)c3cnc[nH]3)C2)CC1 (stereo unspecified)
differential viability (reversal): 5.75% (inactive)
--
COMPOUND: O=C(Cc1cccs1)Nc1ccccc1C(=O)O
differential viability (reversal): 5.91% (inactive)

Each recorded value in this set is attributed to PubChem BioAssay.
